- assay: soluble fraction after stress (log2 fold change); higher = more stays soluble; pooled small domains, quantitative proteomics
- study_conditions: stress: pH 4
// Not fulfilled strictly below -0.2 in soluble fraction (log2); Fulfilled otherwise

{"columns": ["seq", "label_class"],
 "data": [
  ["HMLTPQEIGSRLKLVRQGLQLKQQEVAEIIGTSQLKISKIEQGATVTTPDFLKLLAFYSQSVSLDILF", "Not fulfilled"],
  ["HMSEFAYPISLNGKTKFNLALSLALTKEEIEKEVLANADVQKFLNGQTPKKLIVVPGKIVNVV", "Fulfilled"],
  ["HMYMKMNDRIRSRRKELKMTQSVLAKLVGVNRVTITGWESGDYKPGGENLQALAAALEKTPQWLLDGKD", "Fulfilled"],
  ["HMTMQQGTISRLNHSRGFGFLTTPDGEDLFFHRTNVHETPFARLQVGDRVTYDVQVTPRGTRADKVQLNM", "Not fulfilled"],
  ["HMDMSDFEVVRDMYLTGKVWNAGDIVEAKGITGEVVRKGTNYLSFVDKNGKVHKAWLHEIEL", "Not fulfilled"],
  ["HMKTKILAPIPGSIMVVDVKVGDTVKVGDRLVQLEAMKMENNITSEKAGKITAVLVTAGQKVLQNEVMIEL", "Not fulfilled"],
  ["HMAPASADQLIDQLNEKVKAKDDKGVAALLTAAQTKMAELAQKDPKEAQAYVAKLQQWMQSNSENIKAALK", "Fulfilled"],
  ["HMQQISDPQVLRPMAEEVLHQSQKVVQDYKGGNKNAFHALVGQMMKKTQGKGNPQVIGQVLSELLDE", "Not fulfilled"]
]}

The measured values listed here are drawn from the domain aggregation screens of Martell et al. (2025).
